Entries and their log10 Ki
system: KAT7+BRPF1+EAF6+ING5 4 protein complex (Homo sapiens (Human), UniProt O95251)
procedureSummary: KAT7 BRPF1 assay (SAMDI-MS acetylation of H3 1-21 peptide)
Format: biochemical
testContext: Morrison equation fit; replicate number in parentheses
// do not treat as linear: log10 of Ki, unit nM

Example entries begin here.
molecule="COc1cc2c(NS(=O)(=O)c3c(OC)cccc3OC)noc2cc1Nc1cc(C2CC2)n[nH]1 [Example 47]" numericreadout=0.28
molecule="CCn1cnc(Nc2cc3onc(NS(=O)(=O)c4c(OC)cccc4OC)c3cc2OC)n1 [Example 41]" numericreadout=1.41
molecule="CCc1nc(Nc2cc3onc(NS(=O)(=O)c4c(OC)cccc4OC)c3cc2OC)n[nH]1 [Example 40]" numericreadout=1.69

So what does the record say about log10 Ki for COc1cccc(OC)c1S(=O)(=O)Nc1noc2cc(Nc3ncc[nH]3)cc(OC)c12 [Example 15] ?
1.83

So what does the record say about log10 Ki for COc1cc2c(NS(=O)(=O)c3ccc(C)cc3OC)noc2cc1Nc1cc[nH]n1 [Example 23] ?
1.56
